Target: human NKp30 (human) (UniProt O14931)
Sequence (O14931 19-135 limits assumed): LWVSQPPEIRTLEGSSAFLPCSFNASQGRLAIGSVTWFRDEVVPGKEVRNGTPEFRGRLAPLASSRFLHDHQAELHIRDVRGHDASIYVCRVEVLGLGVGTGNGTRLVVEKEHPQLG
Assay: BLI, immunoligand on anti-hFc tip
EXPERIMENTAL ENDPOINT: koff (s⁻¹)
Report only the number, with the unit s⁻¹ understood.

[
  {
    "BINDER": "ΔB7-H6_S3#28-SEED-PGLALA (bispecific antibody, part only; not given: SEED Fc chains and hu225 EGFR Fab, part only) chain, part: DLKVEMMAGGTQITPLNDNVTIFCNIFYSQPLNITHMGITWFWKSLTFDKEVKVFEFWGDHQEAFRPGAIVSPWRLKSGDASLRLPGIQLEEAGEYRCEVVVTPLKAQGTVQLEVVASPAS",
    "UNIT SYMBOL": "s⁻¹",
    "ENDPOINT VALUE": 0.136
  },
  {
    "BINDER": "ΔB7-H6_S3#22-SEED-PGLALA (bispecific antibody, part only; not given: SEED Fc chains and hu225 Fab, part only) chain, part: DLKVEMMAGGTQITPLNDNVTIFCNIFYSQPLNITEMGITWFWKSLTFDKEVKVFEFWGDHQEAFRPGAIVSPWRLKSGDASLRLPGIQLEEAGEYRCEVVVTPYKAQGTVQLEVVASPAS",
    "UNIT SYMBOL": "s⁻¹",
    "ENDPOINT VALUE": 0.0441
  },
  {
    "BINDER": "ΔB7-H6_S3#2-SEED-PGLALA (bispecific antibody, part only; not given: SEED Fc chains and hu225 EGFR Fab, part only) chain, part: DLKVEMMAGGTQITPLNDNVTIFCNIFYSQPLNITWMGITWFWKSLTFDKEVKVFEFWGDHQEAFRPGAIVSPWRLKSGDASLRLPGIQLEEAGEYRCEVVVTPYKAQGTVQLEVVASPAS",
    "UNIT SYMBOL": "s⁻¹",
    "ENDPOINT VALUE": 0.0122
  }
]

Note: attention shifts to another entry.
If you can, please state the reported koff value of ΔB7-H6_S2#12-SEED-PGLALA (bispecific antibody, part only; not given: SEED Fc chains and hu225 Fab, part only) chain, part: DLKVEMMAGGTQITPLNDNVTIFCNIFYSQPLNITHMGITWLWKSLTFDKEVKVFEFYGDHQEAFRPGAIVSPWRLKSGDASLRLPGIQLEEAGEYRCEVVVTPLKAQGTVQLEVVASPAS .
0.162
